Every entry's value here was drawn from paper doi:10.1101/2024.03.05.583629.

- TARGET OR SYSTEM: pT7_6His-AlfaTag-HOXD13 (human, UniProt P35453 263-343)
- Sequence (P35453 263-343): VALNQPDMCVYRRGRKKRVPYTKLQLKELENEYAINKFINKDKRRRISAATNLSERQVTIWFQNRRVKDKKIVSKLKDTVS
- EXPERIMENT DESCRIPTION: PADIT-seq
- CONDITION DETAILS: dsDNA, one strand shown
MEASURED PARAMETER: binding signal (log2FC)
Supply the numeric figure in log2FC, leaving out any unit text.

# count of solved cases: 3
INSERT INTO results (sequence_record, unit_info, measured_value) VALUES
  ('CTCGAGGATATCAAGATCTGGCCTCGGCGCGGGAGCGGGAACCTCTAGCTAGCCGACTCACTATAGGGATAATCGCCCTGAGCAAAGACC', 'log2FC', -0.635),
  ('CTCGAGGATATCAAGATCTGGCCTCGGCATTTTATCAGGAACCTCTAGCTAGCCGACTCACTATAGGGATAATCGCCCTGAGCAAAGACC', 'log2FC', 2.32),
  ('CTCGAGGATATCAAGATCTGGCCTCGGCCTTTTATGAGGAACCTCTAGCTAGCCGACTCACTATAGGGATAATCGCCCTGAGCAAAGACC', 'log2FC', 3.45);

What the record says about CTCGAGGATATCAAGATCTGGCCTCGGCTCGATAAAAGGAACCTCTAGCTAGCCGACTCACTATAGGGATAATCGCCCTGAGCAAAGACC : binding signal is 1.03

Just so you know, measured binding signal for CTCGAGGATATCAAGATCTGGCCTCGGCTTTTTACTCGGAACCTCTAGCTAGCCGACTCACTATAGGGATAATCGCCCTGAGCAAAGACC came out at 0.725

CTCGAGGATATCAAGATCTGGCCTCGGCTATTTAAAAGGAACCTCTAGCTAGCCGACTCACTATAGGGATAATCGCCCTGAGCAAAGACC yielded binding signal of 2.42

Item: CTCGAGGATATCAAGATCTGGCCTCGGCTTTTTAAATGGAACCTCTAGCTAGCCGACTCACTATAGGGATAATCGCCCTGAGCAAAGACC | binding signal: 1.81

----------
- TARGET OR SYSTEM: pT7_6His-AlfaTag-HOXD13 (human, UniProt P35453 263-343)
- EXPERIMENT DESCRIPTION: PADIT-seq
- CONDITION DETAILS: dsDNA, one strand shown
Consider the following sequences and their measured binding signal readings.

INSERT INTO measurements (sequence_record, target_or_system, measured_parameter, measured_value) VALUES
  ('CTCGAGGATATCAAGATCTGGCCTCGGCTTTTTAAGGGGAACCTCTAGCTAGCCGACTCACTATAGGGATAATCGCCCTGAGCAAAGACC', 'pT7_6His-AlfaTag-HOXD13 (human, UniProt P35453 263-343)', 'binding signal', '1.83 log2FC'),
  ('CTCGAGGATATCAAGATCTGGCCTCGGCTTTTTATAGGGAACCTCTAGCTAGCCGACTCACTATAGGGATAATCGCCCTGAGCAAAGACC', 'pT7_6His-AlfaTag-HOXD13 (human, UniProt P35453 263-343)', 'binding signal', '3.37 log2FC'),
  ('CTCGAGGATATCAAGATCTGGCCTCGGCCTTTTAAGTGGAACCTCTAGCTAGCCGACTCACTATAGGGATAATCGCCCTGAGCAAAGACC', 'pT7_6His-AlfaTag-HOXD13 (human, UniProt P35453 263-343)', 'binding signal', '1.38 log2FC'),
  ('CTCGAGGATATCAAGATCTGGCCTCGGCTAGTGGGCGGGAACCTCTAGCTAGCCGACTCACTATAGGGATAATCGCCCTGAGCAAAGACC', 'pT7_6His-AlfaTag-HOXD13 (human, UniProt P35453 263-343)', 'binding signal', '-0.725 log2FC'),
  ('CTCGAGGATATCAAGATCTGGCCTCGGCTTTTTAACGGGAACCTCTAGCTAGCCGACTCACTATAGGGATAATCGCCCTGAGCAAAGACC', 'pT7_6His-AlfaTag-HOXD13 (human, UniProt P35453 263-343)', 'binding signal', '1.89 log2FC'),
  ('CTCGAGGATATCAAGATCTGGCCTCGGCGTTTTAAGAGGAACCTCTAGCTAGCCGACTCACTATAGGGATAATCGCCCTGAGCAAAGACC', 'pT7_6His-AlfaTag-HOXD13 (human, UniProt P35453 263-343)', 'binding signal', '2.61 log2FC'),
  ('CTCGAGGATATCAAGATCTGGCCTCGGCACCCCACGCGGAACCTCTAGCTAGCCGACTCACTATAGGGATAATCGCCCTGAGCAAAGACC', 'pT7_6His-AlfaTag-HOXD13 (human, UniProt P35453 263-343)', 'binding signal', '-1.03 log2FC'),
  ('CTCGAGGATATCAAGATCTGGCCTCGGCAAGGTAAAAGGAACCTCTAGCTAGCCGACTCACTATAGGGATAATCGCCCTGAGCAAAGACC', 'pT7_6His-AlfaTag-HOXD13 (human, UniProt P35453 263-343)', 'binding signal', '-0.357 log2FC'),
  ('CTCGAGGATATCAAGATCTGGCCTCGGCCCTATAAAAGGAACCTCTAGCTAGCCGACTCACTATAGGGATAATCGCCCTGAGCAAAGACC', 'pT7_6His-AlfaTag-HOXD13 (human, UniProt P35453 263-343)', 'binding signal', '2.89 log2FC'),
  ('CTCGAGGATATCAAGATCTGGCCTCGGCGGCGTAAAAGGAACCTCTAGCTAGCCGACTCACTATAGGGATAATCGCCCTGAGCAAAGACC', 'pT7_6His-AlfaTag-HOXD13 (human, UniProt P35453 263-343)', 'binding signal', '0.246 log2FC');

# sequence CTCGAGGATATCAAGATCTGGCCTCGGCCGCCCAGAGGGAACCTCTAGCTAGCCGACTCACTATAGGGATAATCGCCCTGAGCAAAGACC ; its binding signal = -1.03 log2FC
